So I've got a bunch of compounds here, and I need their pIC50 values.
Expect pIC50 as a plain number equal to -log10 of the molar concentration.

Query `CC(=O)N1CCc2c(C(=O)N3CCC(c4cccc(F)c4Cl)CC3)n[nH]c2C1` on RBP4 (Homo sapiens (Human), UniProt P02753); pIC50 returned: 8.31

Summary: `O=C(c1n[nH]c2c1CN(CCC(F)(F)F)CC2)N1CCC(c2cccc(F)c2Cl)CC1` , RBP4 (Homo sapiens (Human), UniProt P02753), pIC50 = 7.93

# value of pIC50, RBP4 (Homo sapiens (Human), UniProt P02753), item `CC(C)CC(=O)N1Cc2[nH]nc(C(=O)N3CCC(c4ccc(F)c(F)c4C(F)(F)F)CC3)c2C1` = 7.71

Log: RBP4 (Homo sapiens (Human), UniProt P02753), compound `O=C(c1n[nH]c2c1CN(C1COC1)CC2)N1CCC(c2ccc(F)c(F)c2C(F)(F)F)CC1` , pIC50 = 8.05

Tested on RBP4 (Homo sapiens (Human), UniProt P02753): `O=C(c1ccccc1)N1Cc2[nH]nc(C(=O)N3CCC(c4ccc(F)c(F)c4C(F)(F)F)CC3)c2C1` . Observed pIC50: 7.66

Query `O=C(c1n[nH]c2c1CN(CC1CC1)CC2)N1CCC(c2cccc(F)c2Cl)CC1` on RBP4 (Homo sapiens (Human), UniProt P02753); pIC50 returned: 7.87

I looked up `CS(=O)(=O)N1CCc2[nH]nc(C(=O)N3CCC(c4cccc(F)c4C(F)(F)F)CC3)c2C1` and its pIC50 for RBP4 (Homo sapiens (Human), UniProt P02753) was 8.27

# `O=C(c1n[nH]c2c1CN(C(=O)N1CCCC1)C2)N1CCC(c2ccc(F)c(F)c2C(F)(F)F)CC1` with RBP4 (Homo sapiens (Human), UniProt P02753): pIC50 is 7.69
